Measured values drawn from patent US20100305113A1 for this set.

test-system: PI3K alfa (Homo sapiens, UniProt P42336)
Construct: p85(iSH2) fusion partner (same polypeptide; see partner chain) (N); 12x Gly linker (N); His tag (C); Tn5 (Trichoplusia ni) or TiniPro insect cells
Sequence (P42336 with tags, fused parts or gaps limits assumed): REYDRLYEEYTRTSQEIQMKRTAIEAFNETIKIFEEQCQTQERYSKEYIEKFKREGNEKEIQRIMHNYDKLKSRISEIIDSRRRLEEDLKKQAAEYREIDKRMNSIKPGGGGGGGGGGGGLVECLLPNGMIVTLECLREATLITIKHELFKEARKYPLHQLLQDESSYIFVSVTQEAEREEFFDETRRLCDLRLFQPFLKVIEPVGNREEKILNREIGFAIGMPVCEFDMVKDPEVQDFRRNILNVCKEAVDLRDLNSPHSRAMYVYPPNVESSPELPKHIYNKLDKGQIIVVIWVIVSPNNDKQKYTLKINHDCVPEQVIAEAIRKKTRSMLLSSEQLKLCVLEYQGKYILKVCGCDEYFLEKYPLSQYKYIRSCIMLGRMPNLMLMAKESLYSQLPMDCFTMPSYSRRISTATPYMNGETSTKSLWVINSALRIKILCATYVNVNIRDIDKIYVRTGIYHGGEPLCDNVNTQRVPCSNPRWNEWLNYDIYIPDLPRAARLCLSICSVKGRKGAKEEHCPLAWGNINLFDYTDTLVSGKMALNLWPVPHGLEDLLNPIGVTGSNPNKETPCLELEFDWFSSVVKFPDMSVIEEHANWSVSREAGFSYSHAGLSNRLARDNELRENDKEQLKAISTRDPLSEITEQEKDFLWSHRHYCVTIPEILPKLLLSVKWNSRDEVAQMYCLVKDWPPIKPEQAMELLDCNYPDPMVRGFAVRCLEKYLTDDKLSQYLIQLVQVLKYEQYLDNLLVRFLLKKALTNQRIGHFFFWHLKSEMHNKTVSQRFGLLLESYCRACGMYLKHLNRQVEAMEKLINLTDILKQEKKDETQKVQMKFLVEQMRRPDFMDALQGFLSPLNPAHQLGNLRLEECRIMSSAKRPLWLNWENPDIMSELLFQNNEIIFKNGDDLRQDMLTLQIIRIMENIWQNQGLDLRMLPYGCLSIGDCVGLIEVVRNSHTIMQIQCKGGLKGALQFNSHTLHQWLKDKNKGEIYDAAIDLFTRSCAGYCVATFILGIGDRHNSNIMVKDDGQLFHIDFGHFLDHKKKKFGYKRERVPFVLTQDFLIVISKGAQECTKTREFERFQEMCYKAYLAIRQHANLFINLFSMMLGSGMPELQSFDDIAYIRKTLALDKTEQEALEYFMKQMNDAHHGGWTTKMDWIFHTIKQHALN
procedure-summary: PI3K alfa enzymatic assay (Kinase-Glo luminescence)
condition-summary: Enzymatic Data
pIC50: −log10 of the molar value.
readout-label: pIC50

Worked set:
chem-smiles | reported
COc1cc(-c2ccc3nc(C)c(-c4ccc(S(C)(=O)=O)cc4)n3n2)ccc1OC1CCNCC1 | 5.98
CCOc1ccc(-c2ccc3nc(C)c(-c4ccc(N5CCOCC5)nc4)n3n2)cc1OC | 6.86
COc1ccc(-c2ccc3nc(C)c(-c4ccc(N)nc4)n3n2)cc1OC | 7.02
COc1ccc(-c2ccc3nc(C)c(-c4ccn(S(=O)(=O)c5cccc(C#N)c5)n4)n3n2)cc1OC | 6.87
COc1ccc(-c2ccc3nc(C)c(-c4cnc(N)c(C(F)(F)F)c4)n3n2)cc1OCCCNC(=O)c1ccncc1 | 6.93
COC(=O)NC1(COc2ccc(-c3ccc4nc(C)c(-c5cnc(N)c(C(F)(F)F)c5)n4n3)cc2)COC1 | 6.53
COc1ccc(-c2ccc3nc(C)c(-c4ccc(O)nc4)n3n2)cc1OC | 7.38
COc1cc(-c2ccc3nc(C)c(-c4cnc(N)c(C(F)(F)F)c4)n3n2)ccc1OCCNC(=O)c1ccncc1 | 7.03
CCS(=O)(=O)c1ccc(-c2c(C)nc3ccc(-c4ccc(OCCCN5CCCC5=O)cc4)nn23)cc1 | 5.33
COc1ccc(-c2c(C)nc3ccc(-c4ccc(OC)c(OC)c4)nn23)cn1 | 7.02

[I] COc1cc(-c2ccc3nc(C)c(-c4cnc(N)c(C(F)(F)F)c4)n3n2)ccc1OCCNC(=O)C(C)C
[II] Cc1nc2ccc(-c3ccc(OCC4(NC(=O)C5CC5)COC4)cc3)nn2c1-c1cnc(N)c(C(F)(F)F)c1
Select one. Lower pIC50: I or II Answer by quoting the chosen item's label.
II
(II: 6.90, I: 7.52)
